Cited source: PubChem BioAssay AID588689

- system_name: Genome polyprotein (Dengue virus type 2 (strain 16681-PDK53)) (UniProt P29991)
- assay_summary: flavivirus cap methylation enzyme inhibition – biochemical, confirmation dose response, primary screen (AID 588689)
- condition_context: Dengue-2 NS5 methyltransferase capping enzyme assay, measured here: pilot screen replicate inhibition, at 25 µM, stronger effect = higher value
The whole screen tested about 340,000 compounds, of which about 1,000 (0.29%) were called active. The list is a sample of the results. Measured potencies and affinities stand elsewhere.
readout: inhibition (%)
Kindly answer with a numeric value in %, unit omitted.

Entry `O=S(=O)(NCCc1ccc(F)cc1)c1ccc(F)cc1Br` : reported inhibition = ?
-0.92

Would you mind telling me what inhibition value was observed for `O=C1ON=C(c2ccccc2)/C1=C/c1ccc(O)cc1` ?
20.8

# input molecule: `COc1ccc(CN(C)C(=O)Cn2cnc3c(OCc4ccccc4)ncnc32)cc1OC` ; wanted: its inhibition
2.12

Query (molecule): `Cn1c2cc(C#N)sc2c2cnn(Cc3ccc(F)cc3)c(=O)c21` ; field requested: inhibition
-3.06

Please give the measured inhibition for this molecule: `COc1ccc(OC)c(N2C(=O)c3cccnc3C2=O)c1`
1.22

Which inhibition reading was recorded for the molecule COc1cc(OC)cc(C(=O)NC2CCSC2=O)c1 (stereo unspecified) ?
-3.04

Data request, read-out inhibition, for `Cc1ccccc1NC(=O)Cc1cccs1`
-5.49

Any idea what inhibition was measured for `CC(=O)Nn1cc2c(c1-c1ccccc1)c(=O)n(C)c(=O)n2C` ?
-4.71

Please report the recorded inhibition for `N#CCc1ccc(NC(=O)Cn2c(=O)oc3ccccc32)cc1` .
-4.87

Fill in: inhibition of C=C(C1=CCN(S(=O)C(C)(C)C)[C@@H]1CCO)c1ccccc1 (stereo partly specified) is ___
-2.42

What value of measured inhibition is listed for `CCCC[C@@H]1C=C(C(=O)O)[C@H](c2ccc(Cl)cc2)N1S(=O)(=O)c1ccc(C)cc1` ?
1.23

---

Field: inhibition. Provide a value for each of the compounds that follow.
- system_name: Genome polyprotein (Dengue virus type 2 (strain 16681-PDK53)) (UniProt P29991)
- assay_summary: flavivirus cap methylation enzyme inhibition – biochemical, confirmation dose response, primary screen (AID 588689)
- condition_context: Dengue-2 NS5 methyltransferase capping enzyme assay, at 25 µM, stronger effect = higher value
In all, about 340,000 compounds went through this assay and about 1,000 (0.29%) were called active. Not all results are given here. Measured potencies and affinities stand elsewhere.

Need inhibition of `CC1=C/C(=C(\c2ccc(O)c(C)c2)c2ccccc2S(=O)(=O)O)C=CC1=O` , thanks.
0.65% (inactive)

Could you tell me which inhibition is on file for `CCOC(=O)/C(C#N)=C1/C=C(C)c2ccccc2N1` ?
-9.35% (inactive)

Requested field: inhibition. Item: `C=CCn1c(NC(=O)c2ccc(Br)o2)c(S(=O)(=O)c2ccccc2)c2nc3ccccc3nc21`
-4.19% (inactive)

Param item = `O=C(O)CCN1C(=O)/C(=C\c2ccc(OCc3ccccc3)c(OCc3ccccc3)c2)SC1=S` ; retrieve measured inhibition.
8.45% (inactive)

# get_value(readout='inhibition', item= `COc1ccc(-c2cc(C(F)(F)F)nc(NCc3cccs3)n2)cc1` )
-0.64% (inactive)

Could you share which inhibition value was measured for `CC(=O)N1CCN(CC(=O)Nc2ccccc2C(=O)NCc2ccc(C)cc2)CC1` ?
-0.89% (inactive)

Report inhibition for `CSc1nc(Cl)c(Cc2ccc(OC(C)C)cc2)c(N(C)C)n1` please.
-2.55% (inactive)

Which measured inhibition value corresponds to `CCn1c(C)cc(/C=C2/SC(=S)N(CC(=O)O)C2=O)c1C` ?
-89.8% (inactive)
